Could you please report measured normalized RNA/DNA level with ligand (log10) for the items listed next?
B1: library; a variant is named by its letters at N, in order (parent)
chain: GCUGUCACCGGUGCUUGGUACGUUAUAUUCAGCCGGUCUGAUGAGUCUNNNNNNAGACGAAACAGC

Variants of: B1
EXPERIMENT_NOTES: normalized RNA/DNA level with ligand (relative to sTRSVctl = 100) (log10 (% of sTRSVctl)); HEK293T overexpressing SLC46A1; ligand concentration (+) RNA-Seq: 6 mM; higher = less ribozyme self-cleavage, higher mRNA level
EXPERIMENTAL_PARAMETERS: with (6R,S)-folinic acid; ligand present: yes
In your answer, state the number alone without any accompanying words.

Prompt line: Tell me the measured normalized RNA/DNA level with ligand (log10) of `AUUGAA` , please.
Response line: 2

Prompt line: Need normalized RNA/DNA level with ligand (log10) of `UCAGCG` , thanks.
Response line: 2.03

Prompt line: Which normalized RNA/DNA level with ligand (log10) is reported for this variant? `CCUCAU`
Response line: 2

Prompt line: Would you mind telling me what normalized RNA/DNA level with ligand (log10) value was observed for `AUAAGU` ?
Response line: 2.01

Prompt line: Which normalized RNA/DNA level with ligand (log10) value is on record for `AGGGUC` ?
Response line: 2.03
